Reference source: ChEMBL document CHEMBL1201862

Assignment: determine reported GI50 for the given molecules.
# System: NCI-H23
# Test: NCI tumour cell line growth inhibition, 48 h
Active and inactive are the calls of the source. No stated cut-off is given here; in the data, active = GI50 up to about 1.1 µM and inactive = higher.

Looking up `COc1cc(C)cc2c1c(=O)c1ccccc1n2C` , I found its GI50 recorded as 40.8 µM (inactive)

Looking up `COc1ccc2cc(/C=N\NC(=O)Nc3ccc([N+](=O)[O-])cc3)ccc2c1` , I found its GI50 recorded as 11.4 µM (inactive)

Looking up `N=C(N)SCc1cccc([N+](=O)[O-])c1` , I found its GI50 recorded as 30.5 µM (inactive)

Looking up `Oc1ccc2ccccc2c1/N=N/c1ccc(Cl)cc1` , I found its GI50 recorded as > 100 µM (inactive)

Looking up NC1CC(=O)c2sccc21 (stereo unspecified) , I found its GI50 recorded as > 100 µM (inactive)

Looking up `COc1ccc(C(=C(Cl)c2ccccc2)c2ccc(OC)cc2)cc1` , I found its GI50 recorded as > 100 µM (inactive)
